- Target Or System: T1, recombinant human GM-CSF (human, UniProt P04141 18-144)
- T1 construct: also called rhGM-CSF; CSF2
- T1 sequence (P04141 18-144 limits assumed): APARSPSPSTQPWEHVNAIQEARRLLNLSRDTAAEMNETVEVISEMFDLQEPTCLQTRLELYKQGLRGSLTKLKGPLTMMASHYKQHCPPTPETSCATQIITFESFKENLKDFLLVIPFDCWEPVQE
- Protocol Text: ELISA on coated rhGM-CSF, UBA relative to 1D2
# binding affinity % of 1D2 annotations
Provide the reading as a plain figure in %.

Please review the entries below; each comes with its answer.
1) antibody 1D2 (antibody, V domains shown, also called 1D2-WT; WT) VH: QVQLVQSGAEVKKPGASVKVSCEASGYTFTDKYLHWVRQAPGQGLEWMAWINPKSGGTFYAQNFKGRVTVTRDTSINTAYLELTSLRLDDTSTYYCARGRDYYDQGAADLWGQGTMVTVSS VL: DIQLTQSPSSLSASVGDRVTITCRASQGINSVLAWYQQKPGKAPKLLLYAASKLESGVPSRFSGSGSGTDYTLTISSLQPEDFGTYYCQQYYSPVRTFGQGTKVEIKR : 100
2) 1D2 SDR mutant HY103K (antibody, IgG1, V domains shown, also called X6 K) VH: QVQLVQSGAEVKKPGASVKVSCEASGYTFTDKYLHWVRQAPGQGLEWMAWINPKSGGTFYAQNFKGRVTVTRDTSINTAYLELTSLRLDDTSTYYCARGRDYKDQGAADLWGQGTMVTVSS VL: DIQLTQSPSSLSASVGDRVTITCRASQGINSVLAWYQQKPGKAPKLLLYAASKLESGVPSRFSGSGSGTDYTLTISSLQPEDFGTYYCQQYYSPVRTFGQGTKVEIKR : 143

Enquiry: Report measured binding affinity % of 1D2; entry is 1D2 SDR mutant LV95P (antibody, IgG1, V domains shown, also called X10 P) VH: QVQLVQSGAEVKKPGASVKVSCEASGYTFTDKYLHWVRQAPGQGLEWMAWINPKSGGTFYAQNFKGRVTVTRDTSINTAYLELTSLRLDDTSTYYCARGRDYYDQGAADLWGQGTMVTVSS VL: DIQLTQSPSSLSASVGDRVTITCRASQGINSVLAWYQQKPGKAPKLLLYAASKLESGVPSRFSGSGSGTDYTLTISSLQPEDFGTYYCQQYYSPPRTFGQGTKVEIKR
Return: 46
